study_system: T1, His-tagged CEACAM1 (human, UniProt P13688 35-428)
T1 construct: 45 kDa SPR analyte; also called CEACAM1-HIS; CEACAM1 analyte
T1 sequence: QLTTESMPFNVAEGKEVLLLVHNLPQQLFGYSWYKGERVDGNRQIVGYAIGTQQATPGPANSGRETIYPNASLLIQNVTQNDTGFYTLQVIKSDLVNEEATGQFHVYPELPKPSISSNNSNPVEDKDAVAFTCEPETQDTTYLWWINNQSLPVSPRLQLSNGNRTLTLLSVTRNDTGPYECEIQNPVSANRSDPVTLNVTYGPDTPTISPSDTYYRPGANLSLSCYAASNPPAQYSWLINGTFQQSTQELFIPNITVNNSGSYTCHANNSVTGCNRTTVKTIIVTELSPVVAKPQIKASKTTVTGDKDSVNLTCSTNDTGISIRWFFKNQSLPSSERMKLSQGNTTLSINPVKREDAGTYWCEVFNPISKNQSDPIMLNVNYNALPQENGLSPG
measurement_description: SPR single-cycle, supernatant IgG captured
reported_metric: relative KD to parent
Enter the number alone.

// solved cases for relative KD to parent follow
{"binder": "VH1/CP08G02 (antibody, IgG4, V domains shown, IgG4 (S241P), kappa) VH: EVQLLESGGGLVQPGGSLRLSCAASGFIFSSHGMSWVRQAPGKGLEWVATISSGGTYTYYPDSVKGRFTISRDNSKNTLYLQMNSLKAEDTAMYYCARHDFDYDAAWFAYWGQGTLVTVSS VL: EIVLTQSPATLSLSPGERATLSCRANSAVSYMYWYQQKPGQAPRPWIYLTSNRATGVPARFSGSGSGTDYTLTISSLEPEDFAVYYCQQWTNNPPTFGQGTKLEIK", "reported_metric": "relative KD to parent", "observed": 0.3}
{"binder": "VH1/CP08G01 (antibody, IgG4, V domains shown, IgG4 (S241P), kappa) VH: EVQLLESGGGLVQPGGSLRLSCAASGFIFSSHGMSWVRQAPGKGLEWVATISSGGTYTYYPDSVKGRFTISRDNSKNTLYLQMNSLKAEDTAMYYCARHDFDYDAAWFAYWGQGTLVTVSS VL: EIVLTQSPATLSLSPGERATLSCRANSAVSYMYWYQQKPGQAPRPWIYLTSNRATGVPARFSGSGSGTDYTLTISSLEPEDFAVYYCQQNTNLPFTFGQGTKLEIK", "reported_metric": "relative KD to parent", "observed": 1.5}
{"binder": "CP09G03/Vκ8 S29A (antibody, IgG4, V domains shown, IgG4 (S241P), kappa) VH: EVQLLESGGGLVQPGGSLRLSCAASGFTFNAHAMSWVRQAPGKGLEWVATISSGGTYTYYPDSVKGRFTISRDNSKNTLYLQMNSLKAEDTAMYYCARHDFDYDAAWFAYWGQGTLVTVSS VL: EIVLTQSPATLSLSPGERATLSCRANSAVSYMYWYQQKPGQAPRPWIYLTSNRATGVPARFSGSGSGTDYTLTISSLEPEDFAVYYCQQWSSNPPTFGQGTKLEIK", "reported_metric": "relative KD to parent", "observed": 1.5}
{"binder": "CP08D01/Vκ8 S29A (antibody, IgG4, V domains shown, IgG4 (S241P), kappa) VH: EVQLLESGGGLVQPGGSLRLSCAASGFTFNAHGMSWVRQAPGKGLEWVATISSGGTYTYYPDSVKGRFTISRDNSKNTLYLQMNSLKAEDTAMYYCARHDFDYDAAWFAYWGQGTLVTVSS VL: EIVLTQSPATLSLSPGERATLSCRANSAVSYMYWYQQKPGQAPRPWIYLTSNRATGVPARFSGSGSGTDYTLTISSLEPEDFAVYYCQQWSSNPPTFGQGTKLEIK", "reported_metric": "relative KD to parent", "observed": 1.9}

GET /value?item= CP09C02/Vκ8 S29A (antibody, IgG4, V domains shown, IgG4 (S241P), kappa) VH: EVQLLESGGGLVQPGGSLRLSCAASEFTFSDHAMSWVRQAPGKGLEWVATISSGGTYTYYPDSVKGRFTISRDNSKNTLYLQMNSLKAEDTAMYYCARHGFDYDAAWFAYWGQGTLVTVSS VL: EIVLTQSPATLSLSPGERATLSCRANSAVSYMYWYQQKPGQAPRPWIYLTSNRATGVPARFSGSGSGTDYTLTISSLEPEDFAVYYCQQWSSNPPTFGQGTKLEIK &field=relative KD to parent returns 7.1
